Each entry below carries its reported inhibition at 100 µM.
Biological target: cPLA2 (Homo sapiens, UniProt P47712)
Experiment: Coumarin Assay (cPLA2 inhibition)
Format: biochemical
Settings: CONCENTRATION 100 micromolar; read-out: PERCENT INHIBITION @
Excerpt: Table I reports data for the compounds described in the examples above in cPLA2 inhibition assays (described below). In the data columns of Tables I and II, assay results are reported as a percent inhibition at the concentration specified. 7-hydroxycoumarinyl 6-heptenoate was used as a monomeric substrate for cPLA2 as reported previously (Huang, Z. et al., 1994, Nalytical Biochemistry 222, 110-115). […]
assay_endpoint: inhibition at 100 µM (%)

INSERT INTO assay_data (molecule, assay_endpoint, meas_value) VALUES
  ('COc1cc(C(=O)O)ccc1Cc1cn(C2CCCC2)c2ccc(NC(=O)OC3CCCC3)cc12 [Example 8]', 'inhibition at 100 µM', 44),
  ('O=C(O)CCNC(=O)C(=O)c1cn(C(c2ccccc2)c2ccccc2)c2ccc(NC(=O)C3CCCC3)cc12 [Example 103]', 'inhibition at 100 µM', 50),
  ('CS(=O)(=O)NC(=O)CCc1cn(C(c2ccccc2)c2ccccc2)c2ccc(NC(=O)C3CCCC3)cc12 [Example 85]', 'inhibition at 100 µM', 31),
  ('COc1cc(C(=O)O)ccc1Cc1cn(Cc2ccncc2)c2ccc(NC(=O)OC3CCCC3)cc12 [Example 6]', 'inhibition at 100 µM', 11),
  ('O=C(Nc1ccc2c(c1)c(CNC(CO)C(=O)O)cn2C(c1ccccc1)c1ccccc1)C1CCCC1 (centres unmarked) [Example 68]', 'inhibition at 100 µM', 9),
  ('O=C(O)c1cscc1NC(=O)c1cn(C(c2ccccc2)c2ccccc2)c2ccc(NC(=O)C3CCCC3)cc12 [Example 99]', 'inhibition at 100 µM', 38),
  ('O=C(O)Cc1cn(Cc2ccccc2)c2ccc(-c3ccccc3)cc12 [Example 81]', 'inhibition at 100 µM', 46),
  ('COc1cc(C(=O)NS(=O)(=O)c2ccccc2C)ccc1Cc1cn(C(C)C)c2ccc(NC(=O)OC3CCCC3)cc12 [Example 24]', 'inhibition at 100 µM', 42),
  ('O=C(O)CCc1cn(C(c2ccccc2)c2ccccc2)c2ccc(NC(=O)C3CCCC3)cc12 [Example 84]', 'inhibition at 100 µM', 22),
  ('O=C(O)c1cn(C(c2ccccc2)c2ccccc2)c2ccc(NC(=O)C3CCCC3)cc12 [Example 114]', 'inhibition at 100 µM', 45),
  ('O=C(O)CC1C(=O)NCCN1Cc1cn(C(c2ccccc2)c2ccccc2)c2ccc(NC(=O)C3CCCC3)cc12 (centres unmarked) [Example 67]', 'inhibition at 100 µM', 8),
  ('CCCn1cc(Cc2ccc(C(=O)O)cc2OC)c2cc(NC(=O)OC3CCCC3)ccc21 [Example 1]', 'inhibition at 100 µM', 18),
  ('COc1cc(C(=O)O)ccc1Cc1cn(C(c2ccccc2)c2ccccc2)c2ccc(NC(=O)OC3CCCC3)cc12 [Example 3]', 'inhibition at 100 µM', 39),
  ('O=C(O)CCNC(=O)c1cn(C(c2ccccc2)c2ccccc2)c2ccc(NC(=O)C3CCCC3)cc12 [Example 101]', 'inhibition at 100 µM', 6);

====

Each entry below carries its reported inhibition in vivo at 5 mg/kg.
Tested on: Rat Carrageenan-Induced Footpad Edema
Assay: Rat Carrageenan-Induced Footpad Edema Test
Format: in vivo, male Sprague Dawley rats
Settings: Rattus norvegicus, iv, 3 h, IV, 5 mg/Kg; footpad volume 3 hours after carrageenan; read-out: PERCENT INHIBITION
assay_endpoint: inhibition in vivo at 5 mg/kg (%)

INSERT INTO results (molecule, target_under_test, assay_endpoint, meas_value) VALUES
  ('COc1cc(-c2nnn[nH]2)ccc1Cc1cn(C(c2ccccc2)c2ccccc2)c2ccc(NC(=O)OC3CCCC3)cc12 [Example 98]', 'Rat Carrageenan-Induced Footpad Edema', 'inhibition in vivo at 5 mg/kg', 18.4),
  ('COc1cc(C(=O)O)ccc1Cc1cn(C2CCCC2)c2ccc(NC(=O)OC3CCCC3)cc12 [Example 8]', 'Rat Carrageenan-Induced Footpad Edema', 'inhibition in vivo at 5 mg/kg', -5.7),
  ('CCCCNC(=O)Nc1ccc2c(c1)c(Cc1ccc(C(=O)NS(=O)(=O)C(F)(F)F)cc1OC)cn2C(c1ccccc1)c1ccccc1 [Example 42]', 'Rat Carrageenan-Induced Footpad Edema', 'inhibition in vivo at 5 mg/kg', 7.72),
  ('O=C(O)/C=C/c1cn(C(c2ccccc2)c2ccccc2)c2ccc(NC(=O)C3CCCC3)cc12 [Example 86A]', 'Rat Carrageenan-Induced Footpad Edema', 'inhibition in vivo at 5 mg/kg', 7.4);

====

Each entry below carries its reported inhibition at 30 µM.
Biological target: cPLA2 (Homo sapiens, UniProt P47712)
Experiment: Coumarin Assay (cPLA2 inhibition)
Assay type: biochemical
Conditions: CONCENTRATION 30 micromolar; read-out: PERCENT INHIBITION @
assay_endpoint: inhibition at 30 µM (%)

INSERT INTO assay_data (compound_string, meas_value) VALUES
  ('O=C(O)c1cscc1NC(=O)c1cn(C(c2ccccc2)c2ccccc2)c2ccc(NC(=O)C3CCCC3)cc12', 13),
  ('COc1cc(C(=O)O)ccc1Cc1cn(C(c2ccccc2)c2ccccc2)c2ccc(NS(C)(=O)=O)cc12', 50),
  ('O=C(O)c1cccc(NC(=O)c2cn(C(c3ccccc3)c3ccccc3)c3ccc(NC(=O)C4CCCC4)cc23)c1', 50),
  ('COc1cc(C(=O)O)ccc1Cc1cn(C(c2ccccc2)c2ccccc2)c2ccc(NC(=O)C3CCCC3)cc12', 50);

====

Target: cPLA2 (Homo sapiens)
Sequence (P47712 1-749): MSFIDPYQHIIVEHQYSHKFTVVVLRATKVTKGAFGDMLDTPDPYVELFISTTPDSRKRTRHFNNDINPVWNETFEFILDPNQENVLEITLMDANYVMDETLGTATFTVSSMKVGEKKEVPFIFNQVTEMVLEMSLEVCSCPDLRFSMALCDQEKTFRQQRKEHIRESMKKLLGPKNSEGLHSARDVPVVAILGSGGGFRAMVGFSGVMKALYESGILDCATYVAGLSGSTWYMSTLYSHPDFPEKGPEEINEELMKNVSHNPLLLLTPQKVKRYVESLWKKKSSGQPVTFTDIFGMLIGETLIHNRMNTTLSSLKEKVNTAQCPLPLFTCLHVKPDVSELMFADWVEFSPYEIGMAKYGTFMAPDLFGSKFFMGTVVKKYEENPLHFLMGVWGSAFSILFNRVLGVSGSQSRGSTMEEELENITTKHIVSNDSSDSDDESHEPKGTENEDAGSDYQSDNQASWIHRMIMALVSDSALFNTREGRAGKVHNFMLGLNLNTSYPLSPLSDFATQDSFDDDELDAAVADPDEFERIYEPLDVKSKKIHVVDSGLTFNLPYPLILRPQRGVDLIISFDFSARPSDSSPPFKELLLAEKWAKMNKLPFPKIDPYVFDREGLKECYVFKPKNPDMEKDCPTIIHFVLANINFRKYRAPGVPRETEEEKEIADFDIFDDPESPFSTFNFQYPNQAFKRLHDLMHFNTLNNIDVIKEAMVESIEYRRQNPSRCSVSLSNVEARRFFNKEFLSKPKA
Test: Coumarin Assay (cPLA2 inhibition)
Format: biochemical
Details: CONCENTRATION 50 micromolar; read-out: PERCENT INHIBITION @
Each entry below carries its reported inhibition at 50 µM.
assay_endpoint: inhibition at 50 µM (%)

INSERT INTO results (compound, assay_endpoint, u, meas_value) VALUES
  ('O=C(O)c1cccc(NCc2cn(C(c3ccccc3)c3ccccc3)c3ccc(NC(=O)C4CCCC4)cc23)c1', 'inhibition at 50 µM', '%', 47),
  ('O=C(O)/C=C/c1cn(C(c2ccccc2)c2ccccc2)c2ccc([N+](=O)[O-])cc12 [Example 87A]', 'inhibition at 50 µM', '%', 33),
  ('Cc1c(C(=O)O)c2cc(OCc3ccccc3)ccc2n1Cc1ccc(C(F)(F)F)cc1C(F)(F)F', 'inhibition at 50 µM', '%', 43),
  ('Cc1c(C(=O)Nc2cc(C(=O)O)cc(C(=O)O)c2)c2cc(OCc3ccccc3)ccc2n1Cc1ccc(C(F)(F)F)cc1C(F)(F)F', 'inhibition at 50 µM', '%', 46),
  ('O=C(O)Cc1cn(Cc2ccccc2)c2ccc(-c3cc4ccccc4o3)cc12', 'inhibition at 50 µM', '%', 60),
  ('Cc1c(C(=O)O)c2cc(OCc3ccccc3)ccc2n1Cc1ccc2ccccc2c1', 'inhibition at 50 µM', '%', 28),
  ('Cc1c(C(=O)O)c2cc(OCc3ccccc3)ccc2n1Cc1ccccc1', 'inhibition at 50 µM', '%', 16),
  ('CCCn1cc(Cc2ccc(C(=O)O)cc2OC)c2cc(NC(=O)OC3CCCC3)ccc21', 'inhibition at 50 µM', '%', 7),
  ('O=C(O)C(=O)c1cn(Cc2ccc(C(F)(F)F)cc2C(F)(F)F)c2ccc(OCc3ccccc3)cc12', 'inhibition at 50 µM', '%', 39),
  ('COc1cc(C(N)=O)ccc1Cc1cn(C(c2ccccc2)c2ccccc2)c2ccc(NC(=O)OC3CCCC3)cc12', 'inhibition at 50 µM', '%', 50),
  ('O=C1NC(=O)/C(=C\c2cn(CCCOc3cccc(Cc4ccccc4)c3)c3ccccc23)S1 [Example 82A]', 'inhibition at 50 µM', '%', 50);
